Ref: ChEMBL document CHEMBL5528042

Experiment: Bioavailability in dog at 2 mg/kg,po or 1 mg/kg,iv administration measured for 24 hrs by LC-MS/MS analysis
Format: ADME, organism-based, Canis lupus familiaris
Settings: in vivo
Observable: bioavailability (%)

{"columns": ["Item smiles", "bioavailability [%]"],
 "data": [
  ["CC(C)n1c(=O)n(C)c2cnc3cc(F)c(-c4ccc(OCCCN5CCCCC5)nc4)cc3c21", 66]
]}

(I) COCc1ccc(-c2ccc3ncc4c(c3c2)n([C@@H]2CCOCC2(C)C)c(=O)n4C)cn1
(II) CC(C)n1c(=O)n(C)c2cnc3cc(F)c(-c4ccc(OCCCN(C)C)nc4)cc3c21
(III) CN(C)CCCOc1ccc(-c2ccc3ncc4c(c3c2)n(C2CCOCC2)c(=O)n4C)cn1
Which order do these items take when sorted by rising bioavailability? List them. Provide the ranking by listing each label in its place in the requested order.
I, II, III

---

Assay: Plasma protein binding in rat assessed as unbound fraction incubated for 16 hrs by equilibrium dialysis based UPLC-MS/MS analysis
Assay type: ADME, cell-free
Observable: fraction unbound at 16 h

Below are worked cases with known answers.
{"columns": ["Molecule", "Observable", "Observed"],
 "data": [
  ["COCc1ccc(-c2ccc3ncc4c(c3c2)n([C@@H]2CCOCC2(C)C)c(=O)n4C)cn1", "fraction unbound at 16 h", 0.14],
  ["CC(C)n1c(=O)n(C)c2cnc3cc(F)c(-c4ccc(OCCCN5CCCCC5)nc4)cc3c21 [AZD-1390]", "fraction unbound at 16 h", 0.04]
]}

(P) CC(C)n1c(=O)n(C)c2cnc3cc(F)c(-c4ccc(OCCCN(C)C)nc4)cc3c21
(Q) CC(C)n1c(=O)n(C)c2cnc3ccc(-c4ccc(N5CC[C@@H](N(C)C)C5)nc4)cc3c21
(R) CO[C@H]1C[C@H](n2c(=O)n(C)c3cnc4ccc(-c5ccc(OCCCN6CCCCC6)nc5)cc4c32)C1
Sort these molecules on fraction unbound at 16 h so the largest reading comes first. Provide the ranking by listing each label in its place in the requested order.
P, R, Q
(P: 0.17, R: 0.04, Q: 0.004)

---

Assay: Volume of distribution at steady state in dog at 2 mg/kg,po or 1 mg/kg,iv administration measured for 24 hrs by LC-MS/MS analysis
Format: ADME, organism-based, Canis lupus familiaris
Conditions: in vivo
Observable: Vdss (L/kg)

Below are worked cases with known answers.
{"columns": ["Compound", "Vdss / L/kg"],
 "data": [
  ["CN(C)CCCOc1ccc(-c2ccc3ncc4c(c3c2)n(C2CCOCC2)c(=O)n4C)cn1", 18],
  ["CC(C)n1c(=O)n(C)c2cnc3cc(F)c(-c4ccc(OCCCN5CCCCC5)nc4)cc3c21 [AZD-1390]", 24],
  ["CC(C)n1c(=O)n(C)c2cnc3cc(F)c(-c4ccc(OCCCN(C)C)nc4)cc3c21", 18]
]}

(I) CC(C)n1c(=O)n(C)c2cnc3ccc(-c4ccc(N5CC[C@@H](N(C)C)C5)nc4)cc3c21
(II) COCc1ccc(-c2ccc3ncc4c(c3c2)n([C@@H]2CCOCC2(C)C)c(=O)n4C)cn1
When the recorded Vdss values are compared, which is smaller: that of I or that of II ? Provide the label of your selected option as the answer.
II

---

Test: Apparent permeability across apical to basolateral side in dog MDCKII-MDR1 cells overexpressing BCRP at 0.1 uM incubated for 90 mins by LC-MS/MS analysis
Assay type: ADME, cell-based, Canis lupus familiaris, MDCK-MDR1
Observable: Papp A→B at […], 0.1 µM (×10⁻⁶ cm/s)

Below are worked cases with known answers.
{"columns": ["Compound", "Observable", "Measure unit", "Observed"],
 "data": [
  ["CC(C)n1c(=O)n(C)c2cnc3ccc(-c4ccc(OCCCN5CCC(F)CC5)nc4)cc3c21", "Papp A→B at […], 0.1 µM", "×10⁻⁶ cm/s", 14],
  ["CN(C)CCCOc1ccc(-c2ccc3ncc4c(c3c2)n([C@@H]2CCCOC2)c(=O)n4C)cc1", "Papp A→B at […], 0.1 µM", "×10⁻⁶ cm/s", 9.7],
  ["CC(C)n1c(=O)n(C)c2cnc3ccc(-c4ccc(OC[C@@H]5CCN(C)C5)nc4)cc3c21", "Papp A→B at […], 0.1 µM", "×10⁻⁶ cm/s", 15],
  ["CC(C)n1c(=O)n(C)c2cnc3ccc(-c4ccc(OCCCN5CCCC5)nc4)cc3c21", "Papp A→B at […], 0.1 µM", "×10⁻⁶ cm/s", 24],
  ["CC(C)n1c(=O)n(C)c2cnc3ccc(-c4ccc(OCCCN(C)C)nc4)cc3c21", "Papp A→B at […], 0.1 µM", "×10⁻⁶ cm/s", 13],
  ["Cn1c(=O)n(C2CCOCC2)c2c3cc(-c4ccc(OCCCN5CCCCC5)cc4)ccc3ncc21", "Papp A→B at […], 0.1 µM", "×10⁻⁶ cm/s", 7.5]
]}

(1) COCc1ccc(-c2ccc3ncc4c(c3c2)n([C@H]2CCCOC2)c(=O)n4C)cn1
(2) CC(C)n1c(=O)n(C)c2cnc3cc(F)c(-c4ccc(N5CCC(N(C)C)CC5)nc4)cc3c21
When the recorded Papp A→B at […], 0.1 µM values are compared, which is smaller: that of 1 or that of 2 ? Provide the label of your selected option as the answer.
2

---

Experiment: Bioavailability in rat at 1 mg/kg,po or 0.5 mg/kg,iv administration measured for 24 hrs by LC-MS/MS analysis
Type: ADME, organism-based
Settings: in vivo
Observable: bioavailability (%)

Below are worked cases with known answers.
{"columns": ["Item smiles", "bioavailability / %"],
 "data": [
  ["CN(C)CCCOc1ccc(-c2ccc3ncc4c(c3c2)n(C2CCOCC2)c(=O)n4C)cn1", 57],
  ["CC(C)n1c(=O)n(C)c2cnc3cc(F)c(-c4ccc(OCCCN5CCCCC5)nc4)cc3c21", 74],
  ["COCc1ccc(-c2ccc3ncc4c(c3c2)n([C@@H]2CCOCC2(C)C)c(=O)n4C)cn1", 39],
  ["CC(C)n1c(=O)n(C)c2cnc3ccc(-c4ccc(N5CC[C@@H](N(C)C)C5)nc4)cc3c21", 53]
]}

(a) CC(C)n1c(=O)n(C)c2cnc3cc(F)c(-c4ccc(OCCCN(C)C)nc4)cc3c21
(b) CO[C@H]1C[C@H](n2c(=O)n(C)c3cnc4ccc(-c5ccc(OCCCN6CCCCC6)nc5)cc4c32)C1
Hi there! Just curious which has the higher bioavailability between a and b . Provide the label of your selected option as the answer.
a
(a: 48%, b: 19%)

---

Below: a set of entries, each annotated with reported pIC50.
Target: Serine/threonine-protein kinase mTOR (Homo sapiens, UniProt P42345)
Test: Inhibition of mTOR in human MDA-MB-468 cells incubated for 2.5 hrs by Alexa Fluor 488 staining based fluorescence analysis
pIC50: −log10 of the molar value.

Below are worked cases with known answers.
{"columns": ["Compound", "pIC50"],
 "data": [
  ["CO[C@H]1C[C@H](n2c(=O)n(C)c3cnc4ccc(-c5ccc(OCCCN6CCCCC6)nc5)cc4c32)C1", "< 5.90"],
  ["CC(C)n1c(=O)n(C)c2cnc3cc(F)c(-c4ccc(OCCCN(C)C)nc4)cc3c21", "< 4.50"]
]}

Here is another compound to look at.
# input compound: CC(C)n1c(=O)n(C)c2cnc3cc(F)c(-c4ccc(OCCCN5CCCCC5)nc4)cc3c21 [AZD-1390] ; wanted: its pIC50
< 4.80

---

Test: Intrinsic clearance in rat hepatocyte assessed per 10^6 cells
Format: ADME, cell-based
Conditions: hepatocytes, read-out: CLH
Observable: hepatocyte CLint (µL/min/1e6 cells)

(1) CC(C)n1c(=O)n(C)c2cnc3ccc(-c4ccc(OCCCCN(C)C)nc4)cc3c21
(2) CC(C)n1c(=O)n(C)c2cnc3cc(F)c(-c4ccc(N5CCC(N(C)C)CC5)nc4)cc3c21
(3) CC(C)n1c(=O)n(C)c2cnc3ccc(-c4ccc(N5CC6(CN(C)C6)C5)nc4)cc3c21
Ascending by hepatocyte CLint, please. Provide the ranking by listing each label in its place in the requested order.
3, 2, 1

---

Experiment: Dissociation constant, pKa of compound
Assay type: physicochemical
Observable: pKa

{"columns": ["Item smiles", "Observed"],
 "data": [
  ["CC(C)n1c(=O)n(C)c2cnc3ccc(-c4ccc(OCCCN5CC[C@H](F)C5)nc4)cc3c21", 8.1],
  ["CN(C)CCCOc1ccc(-c2ccc3ncc4c(c3c2)n(C2CCOCC2)c(=O)n4C)cn1", 9.4],
  ["CC(C)n1c(=O)n(C)c2cnc3ccc(-c4ccc(OCCCN5CCC(F)CC5)nc4)cc3c21", 8.5]
]}

---

Assay: Lipophilicity, logD of the compound at pH 7.4
Format: physicochemical
Conditions: buffer
Observable: logD

Below are worked cases with known answers.
{"columns": ["Molecule", "Observed"],
 "data": [
  ["COCc1ccc(-c2ccc3ncc4c(c3c2)n([C@@H]2CCOCC2(C)C)c(=O)n4C)cn1", 2.7],
  ["CO[C@H]1C[C@H](n2c(=O)n(C)c3cnc4ccc(-c5ccc(OCCCN6CCCCC6)nc5)cc4c32)C1", 2.4],
  ["CC(C)n1c(=O)n(C)c2cnc3ccc(-c4ccc(N5CC6(CN(C)C6)C5)nc4)cc3c21", 1.7],
  ["CN(C)CCCOc1ccc(-c2ccc3ncc4c(c3c2)n([C@@H]2CCCOC2)c(=O)n4C)cc1", 2.4],
  ["CC(C)n1c(=O)n(C)c2cnc3ccc(-c4ccc(OCCN(C)C)nc4)cc3c21", 2.1]
]}

(P) CC(C)n1c(=O)n(C)c2cnc3ccc(-c4ccc(OCCCN(C)C)nc4)cc3c21
(Q) CC(C)n1c(=O)n(C)c2cnc3ccc(-c4ccc(OCCCN5CC[C@H](F)C5)nc4)cc3c21
When the recorded logD values are compared, which is smaller: that of P or that of Q ? Provide the label of your selected option as the answer.
P
(P: 1.9, Q: 3)

(I) CC(C)n1c(=O)n(C)c2cnc3ccc(-c4ccc(N5CC(N(C)C)C5)nc4)cc3c21
(II) CC(C)n1c(=O)n(C)c2cnc3ccc(-c4ccc(OC[C@@H]5CCN(C)C5)nc4)cc3c21
Hi there! Just curious which has the higher logD between I and II . Provide the label of your selected option as the answer.
I

(P) CC(C)n1c(=O)n(C)c2cnc3cc(F)c(-c4ccc(N5CCN(C)CC5)nc4)cc3c21
(Q) CC(C)n1c(=O)n(C)c2cnc3ccc(-c4ccc(OCCCN5CCCC5)nc4)cc3c21
Hi there! Just curious which has the higher logD between P and Q . Provide the label of your selected option as the answer.
P
